protocolNotes: Volume of distribution at steady state in rat at 0.25 mg/kg, iv measured for 24 hrs
Type: ADME, organism-based
assayContext: in vivo
outcomeMeasure: Vdss (L/kg)
Respond numerically; units are L/kg and should not be typed.

Here's what some known entries look like.
- compound: "Fc1cc(COC2CCN(Cc3ccc4[nH]cnc4c3)CC2)ccc1Cl"
  Vdss / L/kg: 13.6
- compound: "Cc1c(Cl)cccc1NC(=O)CN1CCC(OCc2ccc(F)c(F)c2)CC1"
  Vdss / L/kg: 5.5
- compound: "Fc1ccc(COC2CCN(Cc3cn4ccccc4n3)CC2)cc1F"
  Vdss / L/kg: 6.4
- compound: "Fc1ccc(COC2CCN(Cc3ccc4[nH]cnc4c3)CC2)cc1F"
  Vdss / L/kg: 19.2
- compound: "Cn1cnc2cc(CN3CCC(OCc4cccc(C(F)(F)F)c4)CC3)ccc21"
  Vdss / L/kg: 6.3
- compound: "Cn1ncc2cc(CN3CCC(OCc4ccc(F)c(F)c4)CC3)ccc21"
  Vdss / L/kg: 12.9

Here is another molecule to look at.
Prompt line: What Vdss value was documented for this molecule, `Fc1cc(COC2CCN(Cc3cn4ccccc4n3)CC2)ccc1Cl` ?
Response line: 5.1
